Entry source: patent US20080194585A1

- Tested on: Colletotrichum orbiculare
- Procedure summary: Test B: cucumber Colletotrichum anthracnose, preventive spray on cucumber seedlings
- Applied conditions: Colletotrichum orbiculare, in Cucumis sativus, 144 h, read-out: Test B disease control rating, 200 ppm

Compound: CC(C)Cn1c(-c2ccc(F)cc2Cl)c(Cl)nc(-n2cccn2)c1=O [Compound 53]
Target: Colletotrichum orbiculare
pest or weed control at 200 ppm / %: 100
--
Compound: CC(C)Cn1c(-c2c(F)cccc2F)c(Cl)nc(-n2cccn2)c1=O [Compound 1]
Target: Colletotrichum orbiculare
pest or weed control at 200 ppm / %: 0
--
Compound: CC(C)Cn1c(-c2c(F)cccc2F)c(Cl)nc(-c2ccccn2)c1=O [Compound 2]
Target: Colletotrichum orbiculare
pest or weed control at 200 ppm / %: 100
--
Compound: CC(C)Cn1c(-c2c(F)cccc2F)c(Br)nc(-n2cccn2)c1=O [Compound 99]
Target: Colletotrichum orbiculare
pest or weed control at 200 ppm / %: 99
--
Compound: Cc1ccc(-c2nc(Cl)c(-c3c(F)cccc3F)n(CC(C)C)c2=O)nc1 [Compound 209]
Target: Colletotrichum orbiculare
pest or weed control at 200 ppm / %: 54
--
Compound: CC(C)Cn1c(-c2c(F)cccc2F)c(Cl)nc(C#N)c1=O [Compound 5]
Target: Colletotrichum orbiculare
pest or weed control at 200 ppm / %: 33
--
Compound: CC(C)Cn1c(-c2c(F)cccc2F)c(Cl)nc(-c2cn(C)cn2)c1=O [Compound 85]
Target: Colletotrichum orbiculare
pest or weed control at 200 ppm / %: 80

###

- System: Botrytis cinerea
- Procedure summary: Test E: tomato botrytis, preventive spray on tomato seedlings
- Applied conditions: Botrytis cinerea, in Solanum lycopersicum, topical, 72 h, read-out: Test E disease control rating
Let's look at some compounds and their measured pest or weed control at 40 ppm.

Compound: NC(=O)c1nc(Cl)c(-c2c(F)cc(F)cc2F)n(-c2cccc(F)c2)c1=O
pest or weed control at 40 ppm / %: 99

Compound: Cc1nc(-n2cccn2)c(=O)n(CC(C)C)c1-c1c(F)cccc1F
pest or weed control at 40 ppm / %: 100

Compound: CCC(C)Cn1c(-c2ccc(F)cc2Cl)c(Cl)nc(-n2ccc(C)n2)c1=O (stereo not shown)
pest or weed control at 40 ppm / %: 100

Compound: CC[C@H](C)Cn1c(-c2c(F)cc(F)cc2F)c(Cl)nc(-n2cccn2)c1=O
pest or weed control at 40 ppm / %: 100

###

Let's look at some compounds and their measured Test E disease control rating.
- Test system: Botrytis cinerea
- Procedure summary: Test E: tomato botrytis, preventive spray on tomato seedlings
- Applied conditions: 40 ppm (marked *); 100 = 100% disease control, 0 = no control
Marks after values point to notes of the source that are not given here.

Smiles record: O=c1c(-n2cccn2)nc(Cl)c(-c2ccc(F)cc2Cl)n1-c1ccccc1
Test E disease control rating: 99* %
//
Smiles record: Cc1ccn(-c2nc(Cl)c(-c3c(F)cccc3F)n(-c3cc(F)cc(F)c3)c2=O)n1
Test E disease control rating: 99* %
//
Smiles record: Cc1ccn(-c2nc(Cl)c(-c3c(F)cc(F)cc3F)n(-c3ccc(Cl)c(Cl)c3)c2=O)n1
Test E disease control rating: 99* %
//
Smiles record: CC(C)Cn1c(-c2c(F)cccc2F)c(Cl)nc(-c2cnccn2)c1=O.Cl
Test E disease control rating: 99* %
//
Smiles record: CC[C@H](C)Cn1c(-c2ccc(F)cc2Cl)c(Br)nc(-n2cccn2)c1=O
Test E disease control rating: 100* %
//
Smiles record: Cc1ccn(-c2nc(Cl)c(-c3c(F)cccc3F)n(-c3ccc(F)cc3)c2=O)n1
Test E disease control rating: 99* %
//
Smiles record: Cc1ccn(-c2nc(Cl)c(-c3c(F)ccc(F)c3F)n(-c3ccccc3)c2=O)n1
Test E disease control rating: 99* %
//
Smiles record: Cc1ccn(-c2nc(Cl)c(-c3c(F)cc(F)cc3F)n(-c3ccc(F)cc3)c2=O)n1
Test E disease control rating: 99* %
//
Smiles record: CC(C)Cn1c(-c2c(Cl)cc(Cl)cc2Cl)c(Cl)nc(-n2cccn2)c1=O
Test E disease control rating: 99* %
//
Smiles record: O=c1c(-n2cccn2)nc(Cl)c(-c2c(F)cccc2F)n1-c1ccccc1C(F)(F)F
Test E disease control rating: 97* %
//
Smiles record: Cc1ccn(-c2nc(Cl)c(-c3ccc(F)cc3Cl)n(-c3ccccc3)c2=O)n1
Test E disease control rating: 99* %
//
Smiles record: CC(C)Cn1c(-c2c(F)cccc2F)c(Cl)nc(-n2cccc2C#N)c1=O
Test E disease control rating: 0* %
//
Smiles record: NC(=O)c1nc(Cl)c(-c2c(F)cc(F)cc2F)n(-c2ccccc2)c1=O
Test E disease control rating: 94* %
//
Smiles record: CCCCn1c(-c2ccc(F)cc2Cl)c(Cl)nc(N2CCC=N2)c1=O
Test E disease control rating: 100* %
//
Smiles record: O=c1c(-n2cccn2)nc(Cl)c(-c2c(F)cc(F)cc2F)n1Cc1cccc(Br)c1
Test E disease control rating: 92* %
//
Smiles record: O=c1c(-n2cccn2)nc(Cl)c(-c2c(F)cc(F)cc2F)n1-c1cc(Cl)cc(Cl)c1
Test E disease control rating: 98* %
//
Smiles record: Cc1ccn(-c2nc(Cl)c(-c3c(F)cc(F)cc3F)n(-c3cc(F)cc(F)c3)c2=O)n1
Test E disease control rating: 99* %
